# Test system: KRAS G12C mutant NCI-H358 cells
# Measurement notes: Cell proliferation inhibition experiment, 3D spheroid, CellTiter-Glo, NCI-H358
# Format: cell-based, human
# Recorded conditions: Homo sapiens, NCI-H358, 120 h, NCI-H358 (KRAS G12C mutant) 3D spheroid, 5 days with compound, CellTiter-Glo; read-out: H358 IC50
Below: a set of entries, each annotated with reported pIC50.
Entry type: numeric. Quantity: pIC50, the -log10 of concentration in molar units.

Compound: C=CC(=O)N1CCN2C(=O)c3c(-c4cn(C)nc4C)nc(-c4c(O)cccc4F)c(Cl)c3OC[C@H]2C1
Numeric result: 6.49

Compound: C=CC(=O)N1CCN2C(=O)c3c(N4C[C@H](O)CC4(C)C)nc(-c4c(O)cccc4F)c(Cl)c3OC[C@H]2C1 (single isomer, unassigned)
Numeric result: 7.96

Compound: C=CC(=O)N1CCN2C(=O)c3c(N4C[C@@](C)(O)CC4(C)C)nc(-c4c(O)cccc4F)c(Cl)c3OC[C@H]2C1 (single isomer, unassigned)
Numeric result: 9.22

Fill blank: measured pIC50 of the compound C=CC(=O)N1CCN2C(=O)c3c(N4CC(N(C)CCOC)CC4(C)C)nc(-c4c(O)cccc4F)c(Cl)c3OCC2C1 (single isomer, unassigned) is ____.
9.40

Fill blank: measured pIC50 of the compound C=CC(=O)N1CCN2C(=O)c3c(N4C[C@@H](O)CC4(C)C)nc(-c4c(F)ccc(Cl)c4O)c(F)c3OC[C@H]2C1 (single isomer, unassigned) is ____.
8.10

Fill blank: measured pIC50 of the compound C=CC(=O)N1CCN2C(=O)c3c(N4C[C@@H](N(C)C)CC4(C)C)nc(-c4cccc(F)c4F)c(Cl)c3OC[C@H]2C1 is ____.
7.66
